- Measurement Setup: mouse, in vivo, iv, 3 mg/kg, AUC0-t
Reported Property: AUC(0-t) (ng·h/mL)
Report only the number, with the unit ng·h/mL understood.

*Q* Form field: reported AUC(0-t) of Ac-PSRLEEELRRRLTE-NH2 [SD14316]
*A* 51

###

- Procedure Summary: Pharmacokinetic study in mouse, intravenous bolus, plasma LC-MS/MS, non-compartmental analysis
- Measurement Setup: in vivo, iv, 3 mg/kg, AUC0-inf, single i.v.
Bridge positions count the residues as written; N and C are the ends. Peptide text beside a SMILES is read from it.
Reported Property: AUC(0-inf)
Dear colleague, please send the value followed by its unit.

*Q* Form field: reported AUC(0-inf) of CC(=O)N1CCC[C@H]1C(=O)N[C@@H](CO)C(=O)N[C@@H](CCCNC(=N)N)C(=O)N[C@@H](CC(C)C)C(=O)N[C@@H](CCC(=O)O)C(=O)N[C@H]1CCC(=O)NCCCC[C@@H](C(=O)N[C@@H](CCCNC(=N)N)C(=O)N[C@@H](CC(C)C)C(=O)N[C@H](C(=O)N[C@@H](CCC(=O)O)C(N)=O)[C@@H](C)O)NC(=O)[C@H](CCCNC(=N)N)NC(=O)[C@H](CC(C)C)NC(=O)[C@H](CCC(=O)O)NC1=O [SD15341] (Ac-PSRLEEELRKRLTE-NH2; lactam 6-10)
*A* 948 ng·h/mL

###

- Procedure Summary: Plasma stability, human plasma
- Measurement Setup: human, plasma, Half-life time, human plasma, 37° C., incubation 24 h (triplicates) or 6 h (duplicates)
Bridge positions count the residues as written; N and C are the ends. Square brackets hold non-standard residues; d marks the D form. Peptide text beside a SMILES is read from it.
Reported Property: half-life

*Q* Form field: reported half-life of CC(=O)N1CCC[C@H]1C(=O)N[C@@H](CO)C(=O)N[C@@H](CCCNC(=N)N)C(=O)N[C@@H](CC(C)C)C(=O)N[C@@H](CCC(=O)O)C(=O)N[C@H]1CCC(=O)NCCCC[C@H](C(=O)N[C@@H](CCCNC(=N)N)C(=O)N[C@@H](CC(C)C)C(=O)N[C@H](C(=O)N[C@@H](CCC(=O)O)C(N)=O)[C@@H](C)O)NC(=O)[C@H](CCCNC(=N)N)NC(=O)[C@H](CC(C)C)NC(=O)[C@H](CCC(=O)O)NC1=O [SD15808] (Ac-PSRLEEELR[dK]RLTE-NH2; lactam 6-10)
*A* 16.1 h

###

- Measurement Setup: mouse, in vivo, iv, 10 mg/kg, Vz
Reported Property: Vd
Dear colleague, please send the value followed by its unit.

*Q* Form field: reported Vd of Ac-PSRLEEELRRRLTE-NH2 [SD14316]
*A* 4.48 L/kg

###

- Procedure Summary: Plasma stability, human plasma
- Measurement Setup: human plasma, 37° C., timepoint 0 h
Bridge positions count the residues as written; N and C are the ends. Peptide text beside a SMILES is read from it.
Reported Property: Conc. (% of T0)

Below are worked cases with known answers.
Compound: CC(=O)N[C@@H](CO)C(=O)N[C@@H](CCCNC(=N)N)C(=O)N[C@@H](CC(C)C)C(=O)N[C@@H](CCC(=O)O)C(=O)N[C@H]1CCC(=O)NCCCC[C@@H](C(=O)N[C@@H](CCCNC(=N)N)C(=O)N[C@@H](CCCNC(=N)N)C(=O)N[C@@H](CC(C)C)C(=O)N[C@H](C(=O)N[C@@H](CCC(=O)O)C(N)=O)[C@@H](C)O)NC(=O)[C@H](CC(C)C)NC(=O)[C@H](CCC(=O)O)NC1=O [SD15192] (Ac-SRLEEELKRRLTE-NH2; lactam 5-8)
Conc. (% of T0): 100.0 % of T0
--
Compound: CC(=O)N1CCC[C@H]1C(=O)N[C@@H](CO)C(=O)N[C@@H](CCCNC(=N)N)C(=O)N[C@@H](CC(C)C)C(=O)N[C@H]1CCC(=O)NCCCC[C@@H](C(=O)N[C@@H](CCCNC(=N)N)C(=O)N[C@@H](CCCNC(=N)N)C(=O)N[C@@H](CC(C)C)C(=O)N[C@H](C(=O)N[C@@H](CCC(=O)O)C(N)=O)[C@@H](C)O)NC(=O)[C@H](CC(C)C)NC(=O)[C@H](CCC(=O)O)NC(=O)[C@H](CCC(=O)O)NC1=O [SD15806] (Ac-PSRLEEELKRRLTE-NH2; lactam 5-9)
Conc. (% of T0): 100.0 % of T0

Could you now look at the following compound, please?
*Q* Form field: reported Conc. (% of T0) of CC(=O)N[C@@H](CO)C(=O)N[C@@H](CCCNC(=N)N)C(=O)N[C@@H](CC(C)C)C(=O)N[C@@H](CCC(=O)O)C(=O)N[C@H]1CCC(=O)NCCCC[C@@H](C(=O)N[C@@H](CCCNC(=N)N)C(=O)N[C@@H](CC(C)C)C(=O)N[C@H](C(=O)N[C@@H](CCC(=O)O)C(N)=O)[C@@H](C)O)NC(=O)[C@H](CCCNC(=N)N)NC(=O)[C@H](CC(C)C)NC(=O)[C@H](CCC(=O)O)NC1=O [SD15194] (Ac-SRLEEELRKRLTE-NH2; lactam 5-9)
*A* 100.0 % of T0

###

remaining at 24 h, 10 µM by entry:
- Procedure Summary: Plasma stability, human plasma
- Measurement Setup: human, Li-heparin plasma
Bridge positions count the residues as written; N and C are the ends. Peptide text beside a SMILES is read from it.
Report only the number, with the unit % understood.

Compound: CC(=O)N[C@@H](CO)C(=O)N[C@@H](CCCNC(=N)N)C(=O)N[C@@H](CC(C)C)C(=O)N[C@@H](CCC(=O)O)C(=O)N[C@@H](CCC(=O)O)C(=O)N[C@@H](CCC(=O)O)C(=O)N[C@@H](CC(C)C)C(=O)N[C@@H](CCCNC(=N)N)C(=O)N[C@H]1CCCCNC(=O)CC[C@@H](C(N)=O)NC(=O)[C@H]([C@@H](C)O)NC(=O)[C@H](CC(C)C)NC(=O)[C@H](CCCNC(=N)N)NC1=O [SD15193] (Ac-SRLEEELRKRLTE-NH2; lactam 9-13)
Endpoint Value: 74.2

*Q* Form field: reported remaining at 24 h, 10 µM of CC(=O)N[C@@H](CO)C(=O)N[C@@H](CCCNC(=N)N)C(=O)N[C@@H](CC(C)C)C(=O)N[C@@H](CCC(=O)O)C(=O)N[C@H]1CCC(=O)NCCCC[C@@H](C(=O)N[C@@H](CCCNC(=N)N)C(=O)N[C@@H](CC(C)C)C(=O)N[C@H](C(=O)N[C@@H](CCC(=O)O)C(N)=O)[C@@H](C)O)NC(=O)[C@H](CCCNC(=N)N)NC(=O)[C@H](CC(C)C)NC(=O)[C@H](CCC(=O)O)NC1=O [SD15194] (Ac-SRLEEELRKRLTE-NH2; lactam 5-9)
*A* 59.9

###

half-life by entry:
- Procedure Summary: Plasma stability, human plasma
- Measurement Setup: human, plasma, Half-life time, human plasma, 37° C., incubation 24 h (triplicates) or 6 h (duplicates)
Bridge positions count the residues as written; N and C are the ends. Square brackets hold non-standard residues; d marks the D form. Peptide text beside a SMILES is read from it.
Report only the number, with the unit h understood.

Compound: CC(=O)N1CCC[C@H]1C(=O)N[C@@H](CO)C(=O)N[C@@H](CCCNC(=N)N)C(=O)N[C@@H](CC(C)C)C(=O)N[C@@H](CCC(=O)O)C(=O)N[C@H]1CSSC[C@H](C(=O)N[C@@H](CCCNC(=N)N)C(=O)N[C@@H](CCCNC(=N)N)C(=O)N[C@@H](CC(C)C)C(=O)N[C@H](C(=O)N[C@@H](CCC(=O)O)C(N)=O)[C@@H](C)O)NC(=O)[C@H](CC(C)C)NC(=O)[C@H](CCC(=O)O)NC1=O [SD15807] (Ac-PSRLECEL[dC]RRLTE-NH2; disulfide 6-9)
Endpoint Value: 6.07
--
Compound: CC(=O)N1CCC[C@H]1C(=O)N[C@@H](CO)C(=O)N[C@@H](CCCNC(=N)N)C(=O)N[C@@H](CC(C)C)C(=O)N[C@H]1CCC(=O)NCCCC[C@@H](C(=O)N[C@@H](CCCNC(=N)N)C(=O)N[C@@H](CCCNC(=N)N)C(=O)N[C@@H](CC(C)C)C(=O)N[C@H](C(=O)N[C@@H](CCC(=O)O)C(N)=O)[C@@H](C)O)NC(=O)[C@H](CC(C)C)NC(=O)[C@H](CCC(=O)O)NC(=O)[C@H](CCC(=O)O)NC1=O [SD15806] (Ac-PSRLEEELKRRLTE-NH2; lactam 5-9)
Endpoint Value: 20.8
--
Compound: CC(=O)N[C@@H](CO)C(=O)N[C@@H](CCCNC(=N)N)C(=O)N[C@@H](CC(C)C)C(=O)N[C@@H](CCC(=O)O)C(=O)N[C@H]1CC(=O)NCCCC[C@@H](C(=O)N[C@@H](CCCNC(=N)N)C(=O)N[C@@H](CC(C)C)C(=O)N[C@H](C(=O)N[C@@H](CCC(=O)O)C(N)=O)[C@@H](C)O)NC(=O)[C@H](CCCNC(=N)N)NC(=O)[C@H](CC(C)C)NC(=O)[C@H](CCC(=O)O)NC1=O [SD15196] (Ac-SRLEDELRKRLTE-NH2; lactam 5-9)
Endpoint Value: 14.5
--
Compound: CC(=O)N1CCC[C@H]1C(=O)N[C@@H](CO)C(=O)N[C@@H](CCCNC(=N)N)C(=O)N[C@@H](CC(C)C)C(=O)N[C@@H](CCC(=O)O)C(=O)N[C@H]1CCCCNC(=O)CC[C@@H](C(=O)N[C@@H](CCCNC(=N)N)C(=O)N[C@@H](CC(C)C)C(=O)N[C@H](C(=O)N[C@@H](CCC(=O)O)C(N)=O)[C@@H](C)O)NC(=O)[C@H](CCCNC(=N)N)NC(=O)[C@H](CC(C)C)NC(=O)[C@H](CCC(=O)O)NC1=O [SD15805] (Ac-PSRLEKELRERLTE-NH2; lactam 6-10)
Endpoint Value: 13.8
--
Compound: CC(=O)N[C@@H](CO)C(=O)N[C@@H](CCCNC(=N)N)C(=O)N[C@@H](CC(C)C)C(=O)N[C@@H](CCC(=O)O)C(=O)N[C@H]1CCC(=O)NCCCC[C@@H](C(=O)N[C@@H](CCCNC(=N)N)C(=O)N[C@@H](CCCNC(=N)N)C(=O)N[C@@H](CC(C)C)C(=O)N[C@H](C(=O)N[C@@H](CCC(=O)O)C(N)=O)[C@@H](C)O)NC(=O)[C@H](CC(C)C)NC(=O)[C@H](CCC(=O)O)NC1=O [SD15192] (Ac-SRLEEELKRRLTE-NH2; lactam 5-8)
Endpoint Value: 3.89

Could you now look at the following compound, please?
*Q* Form field: reported half-life of CC(=O)N[C@@H](CO)C(=O)N[C@@H](CCCNC(=N)N)C(=O)N[C@@H](CC(C)C)C(=O)N[C@@H](CCC(=O)O)C(=O)N[C@@H](CCC(=O)O)C(=O)N[C@@H](CCC(=O)O)C(=O)N[C@@H](CC(C)C)C(=O)N[C@@H](CCCNC(=N)N)C(=O)N[C@H]1CCCCNC(=O)CC[C@@H](C(N)=O)NC(=O)[C@H]([C@@H](C)O)NC(=O)[C@H](CC(C)C)NC(=O)[C@H](CCCNC(=N)N)NC1=O [SD15193] (Ac-SRLEEELRKRLTE-NH2; lactam 9-13)
*A* 56.1
